All values here come from ChEMBL document CHEMBL1137084.

Target: Growth factor receptor-bound protein 2 (Homo sapiens, UniProt P62993)
Sequence (P62993 whole entry, the tested form may be a part): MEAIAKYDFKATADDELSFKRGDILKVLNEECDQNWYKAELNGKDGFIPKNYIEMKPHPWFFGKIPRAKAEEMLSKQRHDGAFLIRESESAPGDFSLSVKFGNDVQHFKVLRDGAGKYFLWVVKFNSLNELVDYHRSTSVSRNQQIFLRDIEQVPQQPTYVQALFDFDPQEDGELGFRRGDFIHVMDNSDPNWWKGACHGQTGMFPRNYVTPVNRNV
Test: In vitro binding affinity in whole cells for Grb2 SH2 domain
Assay type: cell-based
pIC50: −log10 of the molar value.
test.readout: pIC50

smiles.notation	system.tested	pIC50
NC(=O)C[C@@H]1NC(=O)C2(CCCCC2)NC(=O)[C@@H](CC(=O)O)[C@@H](c2ccc(CP(=O)(O)O)cc2)/C=C/C[C@@H](Cc2cccc3ccccc23)CNC1=O	Growth factor receptor-bound protein 2 (Homo sapiens, UniProt P62993)	≥ 6.00

We next turn to a different compound, shown below.
State the recorded pIC50 for this entry: `NC(=O)C[C@@H]1NC(=O)C2(CCCCC2)NC(=O)C[C@@H](c2ccc(CP(=O)(O)O)cc2)/C=C/C[C@@H](Cc2cccc3ccccc23)CNC1=O`
≤ 5.00

###

Target: Growth factor receptor-bound protein 2 (Homo sapiens)
Experiment: In vitro binding affinity in extracellular ELISA-based assay for Grb2 SH2 domain
test.readout: IC50 (nM)
Lab book: enter the figure in nM, no units written.

Sample `NC(=O)C[C@@H]1NC(=O)C2(CCCCC2)NC(=O)[C@@H](CC(=O)O)[C@@H](c2ccc(CP(=O)(O)O)cc2)/C=C/C[C@@H](Cc2cccc3ccccc23)CNC1=O` — what was its IC50?
2
